- targetUnderTest: EPHB4 (Homo sapiens)
- Construct: purchased ReactionBiology
- Sequence (P54760 16-987): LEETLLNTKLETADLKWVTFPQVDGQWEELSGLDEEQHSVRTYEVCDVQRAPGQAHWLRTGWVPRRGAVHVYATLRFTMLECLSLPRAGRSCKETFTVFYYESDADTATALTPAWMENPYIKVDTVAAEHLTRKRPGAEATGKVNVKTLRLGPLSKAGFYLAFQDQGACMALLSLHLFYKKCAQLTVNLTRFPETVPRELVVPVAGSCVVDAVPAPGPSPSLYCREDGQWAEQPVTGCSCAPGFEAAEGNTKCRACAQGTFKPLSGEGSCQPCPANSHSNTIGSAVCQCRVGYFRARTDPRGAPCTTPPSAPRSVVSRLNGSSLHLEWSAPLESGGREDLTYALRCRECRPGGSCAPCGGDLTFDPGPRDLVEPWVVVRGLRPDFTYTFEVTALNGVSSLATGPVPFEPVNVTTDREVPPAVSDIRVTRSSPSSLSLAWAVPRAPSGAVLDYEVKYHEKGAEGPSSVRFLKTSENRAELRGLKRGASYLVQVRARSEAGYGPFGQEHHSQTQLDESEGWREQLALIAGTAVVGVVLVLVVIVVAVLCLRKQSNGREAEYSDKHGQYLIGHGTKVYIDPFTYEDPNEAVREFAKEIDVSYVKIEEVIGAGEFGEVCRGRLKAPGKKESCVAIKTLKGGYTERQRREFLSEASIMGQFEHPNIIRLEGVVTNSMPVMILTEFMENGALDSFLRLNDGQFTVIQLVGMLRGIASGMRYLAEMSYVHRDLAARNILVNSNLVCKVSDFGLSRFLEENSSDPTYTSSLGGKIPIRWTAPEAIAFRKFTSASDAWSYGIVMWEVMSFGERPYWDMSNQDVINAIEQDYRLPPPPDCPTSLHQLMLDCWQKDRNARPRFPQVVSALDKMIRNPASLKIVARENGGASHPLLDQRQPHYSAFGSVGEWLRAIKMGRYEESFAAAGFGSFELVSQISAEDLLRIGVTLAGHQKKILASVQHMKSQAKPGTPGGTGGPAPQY
- testSummary: Kinase activity test (ReactionBiology), % enzyme activity relative to DMSO;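 also: EPHB4 was one of ten selected kinases in the screening panel, with enzyme activity expressed as a percentage of DMSO controls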
- Assay type: biochemical
- conditions: EPHB4; 10 uM; Average; read-out: % Enzyme Activity (relative to DMSO controls), Average
endpointLabel: remaining activity at 10 µM (%)
Give bare numbers, in %.

See these solved cases before continuing.
{"compound": "O=C(O)c1ccccc1O", "remaining activity at 10 µM (%)": 93.4}
{"compound": "CC(C)c1nc(CN(C)C(=O)N[C@H](C(=O)N[C@@H](Cc2ccccc2)C[C@H](O)[C@H](Cc2ccccc2)NC(=O)OCc2cncs2)C(C)C)cs1 [Ritonavir, reference compound]", "remaining activity at 10 µM (%)": 95.1}
{"compound": "Oc1cc(Cl)ccc1Oc1ccc(Cl)cc1Cl [Triclosan, reference compound]", "remaining activity at 10 µM (%)": 97.4}

// below: remaining activity at 10 µM requested for another compound
Incoming: What measured remaining activity at 10 µM goes with C[C@]12CC[C@@H]3c4ccc(O)cc4CC[C@H]3[C@@H]1CC[C@@H]2O [Estradiol, reference compound] ?
Outgoing: 91.9

Every entry's value here was drawn from paper PMC7252619.
